# Test system: IL-10
# experiment_summary: Mouse LPS-induced endotoxic shock, plasma IL-10
# Type: in vivo
# Parameters: key: +: statistically significant induction of IL-10; −: no effect on the level of IL-10
# applied_conditions: 3 mg/kg, p.o.; plasma 90 min after LPS challenge
metric_name: IL-10

• COc1cc(-c2cnc3cc(OCCCN4CCCCC4)ccn23)cc(OC(F)F)c1C(=O)NC1CC1 = −
• COc1cc(-c2cnc3cc(OC[C@H]4COCCO4)ccn23)cc2c1C(=O)N(CC(F)(F)F)CC2 = +
• COc1cc(-c2cnc3cc(OC[C@@H]4COCCO4)ccn23)cc2c1C(=O)N(CC(F)(F)F)CC2 = +
• COc1cc(-c2cnc3cc(OCCN(C)C)ccn23)cc(OC(F)F)c1C(=O)NC1CC1 = −
• COc1cc(-c2cnc3cc(OCCN4CCOCC4)ccn23)cc2c1C(=O)N(CC(F)(F)F)CC2 = −
• COc1cc(-c2cnc3cc(OCCN(C)C)ccn23)cc2c1C(=O)N(CC(F)(F)F)CC2 = −

* * *

IC50 data for SIK2 (Homo sapiens, UniProt Q9H0K1) follow.
metric_name: IC50

- COc1ccn2c(-c3cc4c(c(OC)c3)C(=O)N(CC(F)(F)F)CC4)cnc2c1: 10 to 100 nM
- COc1cc(-c2cnc3cc(OC[C@@H]4CCCN(C(C)C)C4)ccn23)cc(OC(F)F)c1C(=O)NC1CC1: 0.01 to 10 nM
- COc1cc(-c2cnc3cc(OC4CCOCC4)ccn23)cc(OC)c1C(=O)NCC(F)(F)F: 100 to 500 nM
- COc1cc(-c2cnc3cc(OCc4nccn4C(C)C)ccn23)cc(OC(F)F)c1C(=O)NC1CC1: 0.01 to 10 nM
- COc1cc(-c2cnc3cc(OCCC4CC(F)(F)C4)ccn23)cc(OC(F)F)c1C(=O)NC1CC1: 0.01 to 10 nM
- COc1cc(-c2cnc3cc(OCC4CCCO4)ccn23)cc(OC(F)F)c1C(=O)NC1CC1 (centres unmarked): 0.01 to 10 nM
- COc1cc(-c2cnc3cc(OCC4(F)CNC4)ccn23)cc(OC(F)F)c1C(=O)NC1CC1: 0.01 to 10 nM
- COc1cc(-c2cnc3cc(OC[C@@H]4COCCO4)ccn23)cc(OC(F)F)c1C(=O)NC1CC1: 0.01 to 10 nM

* * *

Entries with their measured pIC50, system SIK2 (Homo sapiens, UniProt Q9H0K1):
pIC50: −log10 of the molar value.
metric_name: pIC50

- COc1cc(-c2cnc3cc(OCC(O)CN4CC[C@@H](O)C4)ccn23)cc(OC(F)F)c1C(=O)NC1CC1 (stereo partly shown): 8.00 to 11.00
- COc1cc(-c2cnc3cc(OCC4CCO4)ccn23)cc(OC(F)F)c1C(=O)NC1CC1 (stereo not shown): 8.00 to 11.00
- COC(=O)[C@@H]1CN(CCOc2ccn3c(-c4cc(OC)c(C(=O)NC5CC5)c(OC(F)F)c4)cnc3c2)CCO1: 8.00 to 11.00
- COc1cc(-c2cnc3cc(OC4C[C@H]5CC[C@@H](C4)N5)ccn23)cc(OC(F)F)c1C(=O)NC1CC1.Cl (stereo partly shown) [Cpd 270, hydrochloride salt]: 7.00 to 8.00

* * *

# experimental_system: SIK2 (Homo sapiens, UniProt Q9H0K1)
# Sequence (Q9H0K1 whole entry): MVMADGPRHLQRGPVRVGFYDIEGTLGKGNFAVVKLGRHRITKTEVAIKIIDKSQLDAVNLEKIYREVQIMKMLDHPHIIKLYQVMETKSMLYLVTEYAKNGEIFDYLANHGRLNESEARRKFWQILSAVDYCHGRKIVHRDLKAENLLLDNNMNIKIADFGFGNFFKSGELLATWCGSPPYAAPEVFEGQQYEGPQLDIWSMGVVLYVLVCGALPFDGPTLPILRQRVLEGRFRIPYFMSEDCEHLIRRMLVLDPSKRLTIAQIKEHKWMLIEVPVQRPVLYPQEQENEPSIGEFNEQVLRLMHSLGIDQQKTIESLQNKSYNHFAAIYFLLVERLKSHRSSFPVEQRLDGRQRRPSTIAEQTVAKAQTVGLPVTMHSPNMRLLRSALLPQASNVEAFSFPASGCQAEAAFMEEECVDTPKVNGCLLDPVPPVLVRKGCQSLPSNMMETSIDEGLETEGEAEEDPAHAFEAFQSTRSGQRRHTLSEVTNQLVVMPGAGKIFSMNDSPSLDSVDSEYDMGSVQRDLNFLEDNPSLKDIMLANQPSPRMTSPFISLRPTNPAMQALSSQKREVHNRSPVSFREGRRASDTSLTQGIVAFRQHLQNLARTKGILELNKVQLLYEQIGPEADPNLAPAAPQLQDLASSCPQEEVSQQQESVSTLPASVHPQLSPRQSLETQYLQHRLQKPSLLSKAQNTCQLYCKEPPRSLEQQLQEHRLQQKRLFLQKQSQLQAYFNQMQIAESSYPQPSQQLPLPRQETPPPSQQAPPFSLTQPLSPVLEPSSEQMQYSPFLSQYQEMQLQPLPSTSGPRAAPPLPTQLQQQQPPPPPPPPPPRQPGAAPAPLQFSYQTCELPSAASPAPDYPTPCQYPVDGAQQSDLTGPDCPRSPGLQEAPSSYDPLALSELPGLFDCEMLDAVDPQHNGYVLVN
Measured IC50 by item
metric_name: IC50

- COc1cc(-c2cnc3cc(OCc4ccccc4)ccn23)cc(OC(F)F)c1C(=O)NC1CC1: 0.01 to 10 nM
- COc1cc(-c2cnc3cc(OC4(C#N)CCCC4)ccn23)cc(OC(F)F)c1C(=O)NC1CC1: 100 to 500 nM
- CCOC(=O)C1CCN(CCCOc2ccn3c(-c4cc(OC)c(C(=O)NC5CC5)c(OC(F)F)c4)cnc3c2)CC1: 0.01 to 10 nM
- CCC(COc1ccn2c(-c3cc(OC)c(C(=O)NC4CC4)c(OC(F)F)c3)cnc2c1)N(C)C (stereo not drawn): 10 to 100 nM
- CCN1CCc2cc(-c3cnc4cc(OCCN(C)C)ccn34)cc(OC)c2C1=O: 10 to 100 nM
- COc1cc(-c2cnc3cc(OCCN(C)c4ccncc4)ccn23)cc(OC(F)F)c1C(=O)NC1CC1: 0.01 to 10 nM
- COc1cc(-c2cnc3cc(OCC4CNC(=O)C4)ccn23)cc(OC(F)F)c1C(=O)NC1CC1 (stereo not drawn): 0.01 to 10 nM
- COc1cc(-c2cnc3cc(OCC(O)CN4CC(O)(C(F)(F)F)C4)ccn23)cc(OC(F)F)c1C(=O)NC1CC1 (stereo not drawn): 0.01 to 10 nM
- COc1cc(-c2cnc3cc(OCCN4CCOCC4(C)C)ccn23)cc(OC(F)F)c1C(=O)NC1CC1: 0.01 to 10 nM
- COc1cc(-c2cnc3cc(OCC(O)CN4CCOCC4)ccn23)cc(OC(F)F)c1C(=O)NC1CC1 (single isomer, unassigned) [Cpd 386]: 0.01 to 10 nM
- COc1cc(-c2cnc3cc(OCCCN4CCC(F)(CO)CC4)ccn23)cc(OC(F)F)c1C(=O)NC1CC1: 0.01 to 10 nM
- CN(C)CCOc1ccn2c(-c3cc(OC(F)F)c(C(=O)NC4CC4)c(OC(F)F)c3)cnc2c1: 0.01 to 10 nM
- COc1cc(-c2cnc3cc(OC4CCOCC4)ccn23)cc(OC(F)F)c1C(=O)NC1CC1: 100 to 500 nM
- COc1cc(-c2cnc3cc(OCc4cocn4)ccn23)cc(OC(F)F)c1C(=O)NC1CC1: 0.01 to 10 nM
- COCCOc1ccn2c(-c3cc(OC)c(C(=O)NC4CC4)c(OC(F)F)c3)cnc2c1: 0.01 to 10 nM
- COc1cc(-c2cnc3cc(OCc4ccccn4)ccn23)cc(OC(F)F)c1C(=O)NC1CC1: 0.01 to 10 nM
- COc1cc(-c2cnc3cc(OCc4cc(C)nn4C)ccn23)cc(OC(F)F)c1C(=O)NC1CC1: 0.01 to 10 nM
- COc1cc(-c2cnc3cc(OCC(O)CN4CCOCC4)ccn23)cc(OC(F)F)c1C(=O)NC1CC1 (single isomer, unassigned) [Cpd 387]: 0.01 to 10 nM
- COc1cc(-c2cnc3cc(OCC4CCN(C)CC4)ccn23)cc(OC(F)F)c1C(=O)NC1CC1: 0.01 to 10 nM
- COc1cc(-c2cnc3cc(OCCCN4CCc5ncccc5C4)ccn23)cc(OC(F)F)c1C(=O)NC1CC1: 0.01 to 10 nM
- CN(C)CCOc1ccn2c(-c3cc(F)c(C(=O)NCC(F)(F)F)c(OC(F)F)c3)cnc2c1: 10 to 100 nM
- COc1cc(-c2cnc3cc(OCC4CN(CC#N)C4)ccn23)cc(OC(F)F)c1C(=O)NC1CC1: 0.01 to 10 nM
- COc1cc(-c2cnc3cc(OCC4CC(N)C4)ccn23)cc(OC(F)F)c1C(=O)NC1CC1 (stereo not drawn): 0.01 to 10 nM
- COc1cc(-c2cnc3cc(OC[C@H]4CCCNC4)ccn23)cc(OC(F)F)c1C(=O)NC1CC1: 0.01 to 10 nM
- COc1cc(-c2cnc3cc(OCC(C)(C)N4CCOCC4)ccn23)cc(OC(F)F)c1C(=O)NC1CC1: 10 to 100 nM
- COc1cc(-c2cnc3cc(OCC(O)CN4CCOCC4)ccn23)cc(OC(F)F)c1C(=O)NC1CC1 (stereo not drawn) [Cpd 330]: 0.01 to 10 nM
- COc1cc(-c2cnc3cc(OCCCN4CCS(=N)(=O)CC4)ccn23)cc(OC(F)F)c1C(=O)NC1CC1: 0.01 to 10 nM
- COc1cc(-c2cnc3cc(OCc4cncn4C)ccn23)cc2c1C(=O)N(CC(F)(F)F)CC2: 0.01 to 10 nM
- COc1cc(-c2cnc3cc(OCCCN4CCCCC4)ccn23)cc(OC(F)F)c1C(=O)N1CC(C#N)C1: 0.01 to 10 nM
- COc1cc(-c2cnc3cc(OCC4(CN)CCC4)ccn23)cc(OC(F)F)c1C(=O)NC1CC1: 0.01 to 10 nM
